- Tested on: MAL^TIR (Homo sapiens, UniProt P58753)
- Construct: MAL (residues 79–221); 6xHis; made in house; host or cells: E. coli BL21 (DE3)
- Sequence (P58753 79-221): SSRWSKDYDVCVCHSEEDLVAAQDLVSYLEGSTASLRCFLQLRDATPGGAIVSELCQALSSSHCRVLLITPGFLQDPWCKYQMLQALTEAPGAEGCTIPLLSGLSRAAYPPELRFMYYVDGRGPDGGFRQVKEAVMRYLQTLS
- Experimental protocol: T‐Surf phage library (P8 and P3) selection against MAL^TIR, four rounds, NGS read counts
- Type: binding
- Run conditions: P8 library, selection against MAL TIR; rank by count before grouping
Assay endpoint: P8_MAL Rank (before)

(1) YASSSWALDELLRILY
(2) HFFLDSTEKHSGRNQL
Request: Of 1 and 2 , which shows the smaller P8_MAL Rank (before) value? Kindly give the label for the entry you pick.
Result: 1
(1: 799, 2: 2392)

(I) RSFVASLFQALANKGI
(II) WFYEFLVFLILRDTKV
(III) YLLLSVFQTIFARRTE
Request: # sort list by recorded P8_MAL Rank (before), greatest to least # answer = labels listed in requested order
Result: I, II, III
(I: 2178, II: 1143, III: 800)

* * *

- Tested on: MAL^TIR (Homo sapiens)
- Construct: MAL (residues 79–221); 6xHis; made in house; host or cells: E. coli BL21 (DE3)
- Experimental protocol: T‐Surf phage library (P8 and P3) selection against MAL^TIR, four rounds, NGS read counts
- Format: binding
- Run conditions: P3 library, 4R selection against MAL, rank after grouping
Assay endpoint: P3_MAL Rank (after)

>>> numeric_readout("RRLKWKEALHQLYSWV")
668
>>> numeric_readout("KPSVSGPEKSWHFYL")
660
>>> numeric_readout("KEVEGWRDALTKAPI")
644
>>> numeric_readout("NQWRNALTAAANLSVC")
610
>>> numeric_readout("KEVEGWRDALTQAAN")
599
>>> numeric_readout("SFFWNKLRYILPAPNN")
596
>>> numeric_readout("NGHESELIKEIVVTIV")
647
>>> numeric_readout("PESGKLASGAGKSGQT")
609
>>> numeric_readout("WFFQEKVKIFEARKTI")
669
>>> numeric_readout("FLSHLHRYLVQRGV")
601
>>> numeric_readout("WHFHLRLRMLALLQKM")
582
>>> numeric_readout("DIQSSRLKDDADLVGQ")
655
>>> numeric_readout("PNLRTTLMTSPMRTKT")
656
>>> numeric_readout("MSQRYQGLKNRGIFTF")
663
>>> numeric_readout("HQAFWERLWAKMQAPI")
659
>>> numeric_readout("NQCSNALTGAAILSGW")
641
>>> numeric_readout("GSIKWRDQHTVHPQSS")
589
>>> numeric_readout("KMQKWKDALTKVASL")
673
>>> numeric_readout("SSFREDMWRRLELSQQ")
658
>>> numeric_readout("KQWLNAPTAAANLSGW")
664
>>> numeric_readout("PVAHEISKKMQLFATI")
654
>>> numeric_readout("PNLSNKVMNYLMRTQT")
634
>>> numeric_readout("NQAFWNRLWAKLKPLT")
631
>>> numeric_readout("KEVEGWRDALTKWRA")
652
>>> numeric_readout("ESILNQRRPSSQSIAN")
595
>>> numeric_readout("RLLKWKEALTAAANLSGW")
642
>>> numeric_readout("RLLKWIETLHQFHSWV")
653
>>> numeric_readout("KMQKWKDALYEAANE")
614
>>> numeric_readout("ESGKLASGAGKSGQT")
598
>>> numeric_readout("RGFTSHLYHRIQRNSN")
605
>>> numeric_readout("YAFTSSLHRYLVQRGV")
592
>>> numeric_readout("YAFTGHLHGSLLQRRV")
670
>>> numeric_readout("LQNQWKLALTAAANLSGW")
629
>>> numeric_readout("HLLKEFGKKLITAFKN")
646
>>> numeric_readout("WFWVKLLYALTYRPGI")
651
>>> numeric_readout("RGFLEPLRHHLQAKEQ")
649
>>> numeric_readout("NLWKLWTKPGGVRDDR")
618
>>> numeric_readout("YLKLGYPWCWDRRRFA")
583
>>> numeric_readout("PNLRTKVPDYLKRTKT")
608
>>> numeric_readout("FLNFRGLGGRNYFLGH")
628
>>> numeric_readout("HHKGSYGEALAEDEER")
580
>>> numeric_readout("RNFAGLLYDRLTKWA")
630
>>> numeric_readout("KELLHKWKLALTQTPN")
621
>>> numeric_readout("SKDYAQSAWALAEHEKR")
603
>>> numeric_readout("RLRKWKEALHQFHSWG")
636
>>> numeric_readout("KWFWEKLRYALTYRPAT")
602
>>> numeric_readout("VGWFLHTLCQLILQKG")
632
>>> numeric_readout("LKVKLASGAGKSGQT")
619
>>> numeric_readout("RGFLSHLRHHLQAKD")
648
>>> numeric_readout("YLKWKEALHQFHSWV")
662
>>> numeric_readout("KRISEQLRPALNVRRP")
665
>>> numeric_readout("HQARWNRPWAKLKPPT")
626
>>> numeric_readout("KLQEWRDALTAAANLSGW")
600
>>> numeric_readout("RGFMSHLRHPLQAKDH")
616
>>> numeric_readout("PNLRTKVPNYPMLTKT")
640
>>> numeric_readout("EWIREQMSPALKERLP")
617
>>> numeric_readout("VEQTQVRKPSGAVENA")
627
>>> numeric_readout("RGFLYQAFAREGFKIFM")
581
>>> numeric_readout("KERLHQWKLALTQAPI")
661
>>> numeric_readout("NQLRNALTASANLSGW")
613
>>> numeric_readout("PNLRTKELIYLMRTKT")
667
>>> numeric_readout("NQWKLALTKVANLV")
638
>>> numeric_readout("NSFRERLRHLMAHSKM")
620
>>> numeric_readout("AFLYTFLINLTHPTNF")
588
>>> numeric_readout("NQWRNALSSIASRP")
625
>>> numeric_readout("HHTGSYGQALAEHEKR")
584
>>> numeric_readout("RGFLSHLSHPLQAKDP")
585
>>> numeric_readout("RGCLSHLRHHLHAKEH")
590
>>> numeric_readout("SSCREGLWRLLELCKK")
635
>>> numeric_readout("YFWHALKNALAEHEKR")
674
>>> numeric_readout("YAFTGHFHCCKLQRGV")
666
>>> numeric_readout("KWFWDTLTYAPNLSPH")
672
>>> numeric_readout("PNLRTKVLYYPMRTKT")
624
>>> numeric_readout("RLLKWNEELHLFHSWV")
612

* * *

- Tested on: MAL^TIR (Homo sapiens)
- Construct: MAL (residues 79–221); 6xHis; made in house; host or cells: E. coli BL21 (DE3)
- Experimental protocol: T‐Surf phage library (P8 and P3) selection against MAL^TIR, four rounds, NGS read counts
- Assay type: binding
- Run conditions: P8_MAL: rank by count after grouping
Assay endpoint: Rank (after)

As a guide, the following entries are already answered.
>>> numeric_readout("TFLGHLYNALVQTGIP")
112
>>> numeric_readout("AFFWEKLRTVLGRPTM")
477
>>> numeric_readout("AFLYTFLINLTPPTEY")
401
>>> numeric_readout("SFLHFLLLSRPETAYI")
395
>>> numeric_readout("AFLYTFLIKLTHPPNF")
101

(a) WFYERLVSLLMRDTKV
(b) TFLGHLYNTLVQASIF
Request: Kindly identify which of a and b has the larger recorded Rank (after) value. Kindly give the label for the entry you pick.
Result: b

(a) LFFWKSLKQLLRSDSR
(b) AFLYTFLKNLTHTPTF
Request: Kindly identify which of a and b has the larger recorded Rank (after) value. Kindly give the label for the entry you pick.
Result: b
(b: 410, a: 124)

(a) WFYARLVSLLLRDTKV
(b) YFLNFLLFSRPETDYI
(c) PLLYTFLINLTHPTNF
Request: # sort list by recorded Rank (after), greatest to least # answer = labels listed in requested order
Result: b, a, c

* * *

- Tested on: MAL^TIR (Homo sapiens, UniProt P58753)
- Construct: MAL (residues 79–221); 6xHis; made in house; host or cells: E. coli BL21 (DE3)
- Experimental protocol: T‐Surf phage library (P8 and P3) selection against MAL^TIR, four rounds, NGS read counts
- Format: binding
- Run conditions: P3 library, 4R selection against MAL, rank before grouping
Assay endpoint: P3_MAL Rank (before)

>>> numeric_readout("SAFVAPLSEALNQRAL")
2980
>>> numeric_readout("SSFREGLWRLMELSNK")
3169
>>> numeric_readout("DIQSSRLKDDADLVGQ")
1960

(a) SLLKYKEALPQFHSWL
(b) AFLYTFLINLTHPTNF
Request: Kindly identify which of a and b has the larger recorded P3_MAL Rank (before) value. Kindly give the label for the entry you pick.
Result: a
(a: 2982, b: 1798)

(1) PNLRTKVPNYPMLTKT
(2) CRFRQGLWRLLELSKK
Request: Of 1 and 2 , which shows the smaller P3_MAL Rank (before) value? Kindly give the label for the entry you pick.
Result: 2

Source: paper PMC11714206
